- Test system: CCRIS mutagenicity, Ames/micronucleus/aberration tests
- method summary: CCRIS mutagenicity studies
- condition description: Test System: AMES SALMONELLA TYPHIMURIUM; Strain/Indicator: TA98; Metabolic Activation: NONE; Method: FLUCTUATION (MICROTITER)
- Text: The CCRIS database contains chemical records with carcinogenicity, mutagenicity, tumor promotion, and tumor inhibition test results. It was developed by the National Cancer Institute (NCI). Data are derived from studies cited in primary journals, current awareness tools, NCI reports, and other sources. Test results have been reviewed by experts in carcinogenesis and mutagenesis. CCRIS provides historical information from the years 1985 - 2011. It is no longer updated. […]
Activity calls are given as the source filed them. How the calls were made is not given here.
Write down the outcome that applies. Available outcomes: true (1) (active), false (0) (inactive)

Worked cases, answers included:
CC(C)(OO)c1ccccc1 | true (1)
CS(C)=O | false (0)
Nc1ncn([C@@H]2O[C@H](CO)[C@@H](O)[C@H]2O)c(=O)n1 | true (1)
CCC1CO1 (configuration not stated) | false (0)
Nc1ccc(Oc2ccc(N)cc2)cc1 | false (0)
O=c1c(O)c(-c2ccc(O)c(O)c2)oc2cc(O)cc(O)c12 | true (1)

Lab note: next molecule to report on.
Which outcome was assigned to CC(C)CON=O in this test?
false (0)
